study system: Sigma non-opioid intracellular receptor 1 (Cavia porcellus) (UniProt Q60492)
Sequence (Q60492 whole entry, looked up): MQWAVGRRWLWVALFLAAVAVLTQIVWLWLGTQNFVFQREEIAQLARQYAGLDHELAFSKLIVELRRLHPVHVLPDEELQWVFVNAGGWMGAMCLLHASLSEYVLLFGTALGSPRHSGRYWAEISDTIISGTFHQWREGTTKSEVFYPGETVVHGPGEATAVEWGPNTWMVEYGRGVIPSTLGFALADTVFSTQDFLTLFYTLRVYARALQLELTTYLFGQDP
protocol: Compound is evaluated for binding affinity towards Sigma receptor using [3H]pentazocine in guinea pig brain
assay readout: Ki (µM)

A selection of reference data follows.
>>> reported_result("COc1ccccc1N1CCN(Cc2cn3c(=O)[nH]c4ccccc4c3n2)CC1")
0.743
>>> reported_result("COc1ccccc1N1CCN(Cc2cnc3c4ccccc4nc(O)n23)CC1")
6.52

P = COc1ccccc1N1CCN(CC2CN3C(=O)Nc4ccccc4C3=N2)CC1 (stereo unspecified)
Q = Oc1nc2ccccc2c2ncc(CN3CCN(c4ccccc4Cl)CC3)n12
Param pair: P , Q . Output: the one whose Ki is numerically greater. Please respond with the label that marks your chosen entry.
P
(P: 4 µM, Q: 1.5 µM)

###

study system: D(3) dopamine receptor (Homo sapiens)
Sequence (P35462 as listed by the source): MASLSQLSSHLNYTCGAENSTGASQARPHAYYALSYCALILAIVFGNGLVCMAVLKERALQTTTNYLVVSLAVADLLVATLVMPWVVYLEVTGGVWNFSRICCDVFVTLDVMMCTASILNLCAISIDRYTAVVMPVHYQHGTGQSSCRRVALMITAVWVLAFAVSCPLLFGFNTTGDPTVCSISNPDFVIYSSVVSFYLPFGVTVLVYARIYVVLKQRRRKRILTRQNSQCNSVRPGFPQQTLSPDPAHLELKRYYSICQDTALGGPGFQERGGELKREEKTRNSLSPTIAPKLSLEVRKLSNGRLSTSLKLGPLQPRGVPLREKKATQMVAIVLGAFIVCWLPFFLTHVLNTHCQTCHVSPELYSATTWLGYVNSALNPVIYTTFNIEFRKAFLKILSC
protocol: Compound is evaluated for binding affinity towards recombinant human Dopamine receptor D3 using [3H]spiperone in CHO cells at 10 uM
pKi: −log10 of the molar value.
assay readout: pKi

# pKi of COc1ccccc1N1CCN(C[C@H]2CN=C3c4ccccc4N=C(SC)N32)CC1 = < 5.00

###

study system: Histamine H1 receptor (Cavia porcellus, UniProt P31389)
Sequence (P31389 whole entry): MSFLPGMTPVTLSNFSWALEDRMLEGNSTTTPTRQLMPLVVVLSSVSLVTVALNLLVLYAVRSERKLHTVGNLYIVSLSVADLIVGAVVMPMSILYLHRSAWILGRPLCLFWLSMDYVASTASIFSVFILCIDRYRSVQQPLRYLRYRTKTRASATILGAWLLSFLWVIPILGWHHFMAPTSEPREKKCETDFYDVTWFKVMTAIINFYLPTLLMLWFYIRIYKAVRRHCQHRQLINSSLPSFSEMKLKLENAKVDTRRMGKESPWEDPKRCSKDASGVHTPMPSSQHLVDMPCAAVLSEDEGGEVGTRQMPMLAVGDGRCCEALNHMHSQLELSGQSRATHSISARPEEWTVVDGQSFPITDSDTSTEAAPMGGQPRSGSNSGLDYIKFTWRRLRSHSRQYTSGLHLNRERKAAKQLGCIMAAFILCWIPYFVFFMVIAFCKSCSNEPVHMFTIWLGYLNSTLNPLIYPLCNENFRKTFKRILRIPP
pKi: −log10 of the molar value.
assay readout: pKi

Summary line: COc1ccccc1N1CCN(C[C@H]2CN=C3c4ccccc4N=C(SC)N32)CC1 , Histamine H1 receptor (Cavia porcellus, UniProt P31389), reported pKi = < 5.00
